# assay.explanation: physchem
# measurement.conditions: pH 7.4
value.kind: logD
Reply with the value as a number alone.

Exam item: What does the data say about its logD? Entry: CNc1ccc(/C=C/c2cc([123I])cc(OCCO)c2)cc1 [^123I-15]
Marked response: 2.4

---

# assay.explanation: physchem
# measurement.conditions: pH 7.4
value.kind: logP
Reply with the value as a number alone.

Exam item: What does the data say about its logP? Entry: CNc1ccc(/C=C/c2cc([123I])cc(OCCO)c2)cc1 [^123I-15]
Marked response: 2.39
